# Test system: hiPSC-CMs (iCell-Cardiomyocytes^2)
# runConditions: 10 µM; 24h
# Procedure: Cells were seeded according to the instructions of the cell provider, in fibronectin-coated 48-well MEA plates (Axion Cytoview Plates, M768-tMEA-48B) at a density suited to form a monolayer (i.e., 50 K/well) and maintained in culture in a stage incubator (37°C, 5% CO2). […] The potential presence of various arrhythmic events was evaluated and noted during the data analysis. […]
assayReadout: BR (beating rate), % change from baseline (%)

[
  {
    "compound": "COc1nc(N)nc2c1ncn2[C@@H]1O[C@H](COP(=O)(N[C@@H](C)C(=O)OCC(C)(C)C)Oc2cccc3ccccc23)[C@@H](O)[C@@]1(C)O (some centres unmarked) [BMS-986094]",
    "targetSystem": "hiPSC-CMs (iCell-Cardiomyocytes^2)",
    "valueUnits": "%",
    "endpointValue": 30
  }
]

A = C[C@H](CS)C(=O)N1CCC[C@H]1C(=O)O [Captopril]
B = CC(C)(Sc1cc(C(C)(C)C)c(O)c(C(C)(C)C)c1)Sc1cc(C(C)(C)C)c(O)c(C(C)(C)C)c1 [Probucol]
C = CC(=O)Oc1ccccc1C(=O)O [Aspirin]
D = CC1(C)S[C@@H]2[C@H](NC(=O)[C@H](N)c3ccc(O)cc3)C(=O)N2[C@H]1C(=O)O [Amoxicillin]
Thanks in advance: please rank these 4 entries by BR (beating rate), % change from baseline, highest to lowest. Quick reminder: the answer is the labels in the order asked. D, B, C, A

* * *

A collection of compounds and their measured Flat T-wave-like, number of observations/total well numbers
# System: hiPSC-CMs (iCell-Cardiomyocytes^2)
# runConditions: 0.3 µM, 48h

[
  {
    "compound": "COc1nc(N)nc2c1ncn2[C@@H]1O[C@H](COP(=O)(N[C@@H](C)C(=O)OCC(C)(C)C)Oc2cccc3ccccc23)[C@@H](O)[C@@]1(C)O (stereo partly shown) [BMS-986094]",
    "endpointValue": "0/5"
  }
]

Cc1cn(-c2cc(NC(=O)c3ccc(C)c(Nc4nccc(-c5cccnc5)n4)c3)cc(C(F)(F)F)c2)cn1 [Nilotinib] has a reported Flat T-wave-like, number of observations/total well numbers of 0/5

In plain terms, COc1cc2c(Nc3ccc(Br)cc3F)ncnc2cc1OCC1CCN(C)CC1 [Vandetanib] has a documented Flat T-wave-like, number of observations/total well numbers of 1/5

For record C#Cc1cccc(Nc2ncnc3cc(OCCOC)c(OCCOC)cc23)c1 [Erlotinib] the listed Flat T-wave-like, number of observations/total well numbers is 0/5

Memo: CC(C)(Sc1cc(C(C)(C)C)c(O)c(C(C)(C)C)c1)Sc1cc(C(C)(C)C)c(O)c(C(C)(C)C)c1 [Probucol] , reported Flat T-wave-like, number of observations/total well numbers: 0/5

compound N=C(N)c1ccc(OCCCCCOc2ccc(C(=N)N)cc2)cc1 [Pentamidine] , Flat T-wave-like, number of observations/total well numbers observed: 0/5

The value of Flat T-wave-like, number of observations/total well numbers measured for the compound COc1cccc2c1C(=O)c1c(O)c3c(c(O)c1C2=O)C[C@@](O)(C(=O)CO)C[C@@H]3O[C@H]1C[C@H](N)[C@H](O)[C@H](C)O1 [Doxorubicin] turned out to be 3/5

* * *

# Test system: hiPSC-CMs (iCell-Cardiomyocytes^2)
# runConditions: 3 µM; 24h
assayReadout: BR (beating rate), % change from baseline (%)

[
  {
    "molecule": "CC(C)(Sc1cc(C(C)(C)C)c(O)c(C(C)(C)C)c1)Sc1cc(C(C)(C)C)c(O)c(C(C)(C)C)c1",
    "valueUnits": "%",
    "endpointValue": 7
  }
]

a = O=C(O)COCCN1CCN(C(c2ccccc2)c2ccc(Cl)cc2)CC1 (stereo not drawn)
b = COc1cccc2c1C(=O)c1c(O)c3c(c(O)c1C2=O)C[C@@](O)(C(=O)CO)C[C@@H]3O[C@H]1C[C@H](N)[C@H](O)[C@H](C)O1
Record comparison, field BR (beating rate), % change from baseline: mark the lower of a and b . Kindly state the label of the option you pick. a

* * *

Item-by-item account of Cessation of beating, number of observations/total well numbers
# Test system: hiPSC-CMs (iCell-Cardiomyocytes^2)
# runConditions: 1 µM, 72h
# Protocol: Cells were seeded according to the instructions of the cell provider, in fibronectin-coated 48-well MEA plates (Axion Cytoview Plates, M768-tMEA-48B) at a density suited to form a monolayer (i.e., 50 K/well) and maintained in culture in a stage incubator (37°C, 5% CO2). […] The potential presence of various arrhythmic events was evaluated and noted during the data analysis. […]

Example cases with answers are listed next.
[
  {
    "compound": "N=C(N)c1ccc(OCCCCCOc2ccc(C(=N)N)cc2)cc1 [Pentamidine]",
    "endpointValue": "0/6"
  },
  {
    "compound": "Cc1cn(-c2cc(NC(=O)c3ccc(C)c(Nc4nccc(-c5cccnc5)n4)c3)cc(C(F)(F)F)c2)cn1 [Nilotinib]",
    "endpointValue": "0/5"
  },
  {
    "compound": "COc1nc(N)nc2c1ncn2[C@@H]1O[C@H](COP(=O)(N[C@@H](C)C(=O)OCC(C)(C)C)Oc2cccc3ccccc23)[C@@H](O)[C@@]1(C)O (stereo partly shown) [BMS-986094]",
    "endpointValue": "0/5"
  }
]

Measured Cessation of beating, number of observations/total well numbers of C#Cc1cccc(Nc2ncnc3cc(OCCOC)c(OCCOC)cc23)c1 [Erlotinib] : 0/5

Sure, the documented Cessation of beating, number of observations/total well numbers for CC(C)(Sc1cc(C(C)(C)C)c(O)c(C(C)(C)C)c1)Sc1cc(C(C)(C)C)c(O)c(C(C)(C)C)c1 [Probucol] is 0/4

Lab book: Cessation of beating, number of observations/total well numbers of COc1cc2c(Nc3ccc(Br)cc3F)ncnc2cc1OCC1CCN(C)CC1 [Vandetanib] noted as 1/5

# Cessation of beating, number of observations/total well numbers of COc1cccc2c1C(=O)c1c(O)c3c(c(O)c1C2=O)C[C@@](O)(C(=O)CO)C[C@@H]3O[C@H]1C[C@H](N)[C@H](O)[C@H](C)O1 [Doxorubicin] = 5/5

* * *

# Test system: hiPSC-CMs (iCell-Cardiomyocytes^2)
# runConditions: 3 µM; 48h
# Method: Cells were seeded according to the instructions of the cell provider, in fibronectin-coated 48-well MEA plates (Axion Cytoview Plates, M768-tMEA-48B) at a density suited to form a monolayer (i.e., 50 K/well) and maintained in culture in a stage incubator (37°C, 5% CO2). […] The potential presence of various arrhythmic events was evaluated and noted during the data analysis. […]
assayReadout: FPD (field-potential duration), % change from baseline (%)

Sample answers from the record:
[
  {
    "molecule": "CC(=O)Oc1ccccc1C(=O)O [Aspirin]",
    "endpointValue": 13.2
  },
  {
    "molecule": "C#Cc1cccc(Nc2ncnc3cc(OCCOC)c(OCCOC)cc23)c1 [Erlotinib]",
    "endpointValue": 11
  },
  {
    "molecule": "COc1nc(N)nc2c1ncn2[C@@H]1O[C@H](COP(=O)(N[C@@H](C)C(=O)OCC(C)(C)C)Oc2cccc3ccccc23)[C@@H](O)[C@@]1(C)O (some centres unmarked) [BMS-986094]",
    "endpointValue": -0.5
  },
  {
    "molecule": "CC1(C)S[C@@H]2[C@H](NC(=O)[C@H](N)c3ccc(O)cc3)C(=O)N2[C@H]1C(=O)O [Amoxicillin]",
    "endpointValue": 5.1
  },
  {
    "molecule": "C[C@H](CS)C(=O)N1CCC[C@H]1C(=O)O [Captopril]",
    "endpointValue": 10.9
  }
]

I = O=C(O)COCCN1CCN(C(c2ccccc2)c2ccc(Cl)cc2)CC1 (centres unmarked) [Cetirizine]
II = CC(C)(Sc1cc(C(C)(C)C)c(O)c(C(C)(C)C)c1)Sc1cc(C(C)(C)C)c(O)c(C(C)(C)C)c1 [Probucol]
Would you mind telling me which has the lower recorded FPD (field-potential duration), % change from baseline between I and II ? Output the label that corresponds to your choice. II

* * *

# Test system: hiPSC-CMs (iCell-Cardiomyocytes^2)
# runConditions: 0.1 µM, 48h
Listed here: items and their measured Beating below threshold, number of observations/total well numbers.

// below: answered molecules
[
  {
    "compoundStructure": "Cc1cn(-c2cc(NC(=O)c3ccc(C)c(Nc4nccc(-c5cccnc5)n4)c3)cc(C(F)(F)F)c2)cn1",
    "endpointValue": "0/5"
  },
  {
    "compoundStructure": "COc1cccc2c1C(=O)c1c(O)c3c(c(O)c1C2=O)C[C@@](O)(C(=O)CO)C[C@@H]3O[C@H]1C[C@H](N)[C@H](O)[C@H](C)O1",
    "endpointValue": "0/5"
  }
]

Beating below threshold, number of observations/total well numbers on hiPSC-CMs (iCell-Cardiomyocytes^2) for `COc1cc2c(Nc3ccc(Br)cc3F)ncnc2cc1OCC1CCN(C)CC1` is 0/5

Per the reported hiPSC-CMs (iCell-Cardiomyocytes^2) data, `N=C(N)c1ccc(OCCCCCOc2ccc(C(=N)N)cc2)cc1` has Beating below threshold, number of observations/total well numbers of 0/6
